- STUDY SYSTEM: Recombinant human His-tagged Kat6a protein (amino acids 194-810) (Homo sapiens (Human), UniProt Q92794)
- Sequence (Q92794 194-810): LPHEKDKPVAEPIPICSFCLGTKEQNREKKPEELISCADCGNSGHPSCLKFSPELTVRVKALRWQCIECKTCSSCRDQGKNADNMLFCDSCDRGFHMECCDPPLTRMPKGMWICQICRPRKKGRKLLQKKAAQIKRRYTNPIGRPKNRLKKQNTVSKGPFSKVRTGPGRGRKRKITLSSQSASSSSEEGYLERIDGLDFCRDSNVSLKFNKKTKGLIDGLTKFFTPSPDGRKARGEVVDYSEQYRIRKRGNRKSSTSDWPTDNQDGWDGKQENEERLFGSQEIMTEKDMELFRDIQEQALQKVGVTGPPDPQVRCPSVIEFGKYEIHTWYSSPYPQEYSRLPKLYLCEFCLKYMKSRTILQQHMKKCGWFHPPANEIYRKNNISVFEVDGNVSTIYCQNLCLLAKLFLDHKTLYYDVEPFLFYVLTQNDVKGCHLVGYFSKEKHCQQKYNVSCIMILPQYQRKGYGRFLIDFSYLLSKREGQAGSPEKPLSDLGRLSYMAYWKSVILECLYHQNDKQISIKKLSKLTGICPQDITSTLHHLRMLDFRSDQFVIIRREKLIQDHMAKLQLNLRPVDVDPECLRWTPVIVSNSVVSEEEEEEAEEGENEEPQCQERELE
- METHOD SUMMARY: Kat6a activity assay (TR-FRET, acetylation of biotinylated Histone-H4-derived peptide)
- MEASUREMENT CONTEXT: 60 mins at 22° C., read-out: KAT6A-DPF/HAT domain IC50 [mol/l] (arithmetic mean)
pIC50: −log10 of the molar value.

>  <SMILES ENTRY>
CCOc1ccc(Br)cc1S(=O)(=O)NC(=O)c1cc2ccc(N(C)C)cc2o1

>  <pIC50>
7.42

$$$$
>  <SMILES ENTRY>
CCOc1ccc(NC(C)=O)cc1S(=O)(=O)NC(=O)c1cc2ccc(N(C)C)cc2o1

>  <pIC50>
6.45

$$$$
>  <SMILES ENTRY>
CN(C)c1ccc2cc(C(=O)NS(=O)(=O)c3cc(Br)cnc3NC3CC3)oc2c1

>  <pIC50>
6.58

$$$$
>  <SMILES ENTRY>
CN(C)c1ccc2cc(C(=O)NS(=O)(=O)c3ccccc3C(F)(F)F)oc2c1

>  <pIC50>
6.37

$$$$
>  <SMILES ENTRY>
CCOc1ccccc1S(=O)(=O)NC(=O)c1cc2cc(C)c(N(C)C)cc2o1

>  <pIC50>
5.17

$$$$
>  <SMILES ENTRY>
COc1ccc(Cn2cccn2)cc1S(=O)(=O)NC(=O)c1cc2ccc(N(C)C)cc2o1

>  <pIC50>
7.19

$$$$
>  <SMILES ENTRY>
CCOc1ccccc1S(=O)(=O)NC(=O)c1cc2c(C(F)(F)F)cc(N(C)C)cc2o1

>  <pIC50>
8.24

$$$$
>  <SMILES ENTRY>
CN(CC1CC1)c1ccc2cc(C(=O)NS(=O)(=O)c3ccccc3-c3ccccc3)oc2c1

>  <pIC50>
5.94

$$$$
>  <SMILES ENTRY>
CCN(C)c1ccc2cc(C(=O)NS(=O)(=O)c3ccccc3-c3ccccc3)oc2c1

>  <pIC50>
6.22

$$$$
>  <SMILES ENTRY>
CCOc1ccc(CC)cc1S(=O)(=O)NC(=O)c1cc2ccc(N(C)C)cc2o1

>  <pIC50>
7.53

$$$$
>  <SMILES ENTRY>
CCOc1cccc(C)c1S(=O)(=O)NC(=O)c1cc2ccc(N(C)C)cc2o1

>  <pIC50>
6.34

$$$$
>  <SMILES ENTRY>
CN(C)c1ccc2cc(C(=O)NS(=O)(=O)c3ccc(-c4ccccc4)cc3)oc2c1

>  <pIC50>
6.95

$$$$
>  <SMILES ENTRY>
CN(C)c1cc2oc(C(=O)NS(=O)(=O)c3ccccc3OC3CC3)cc2cc1Br

>  <pIC50>
5.17

$$$$
>  <SMILES ENTRY>
CN(C)c1ccc2cc(C(=O)NS(=O)(=O)c3ccccc3OC(F)(F)F)oc2c1

>  <pIC50>
7.28

$$$$
>  <SMILES ENTRY>
CN(C)c1ccc2cc(C(=O)NS(=O)(=O)c3cc(C(C)(C)C)ccc3OCc3ccccc3)oc2c1

>  <pIC50>
8.05

$$$$
>  <SMILES ENTRY>
CCCCOc1ccccc1S(=O)(=O)NC(=O)c1cc2ccc(N(C)CCOC)cc2o1

>  <pIC50>
5.89

$$$$
>  <SMILES ENTRY>
CC(C)c1ccc(OCC(F)(F)F)c(S(=O)(=O)NC(=O)c2cc3ccc(N(C)C)cc3o2)c1

>  <pIC50>
7.96

$$$$
